test system: Plasmodium falciparum; assay: GSK_TCMDC: Inhibition of Plasmodium falciparum Dd2 in whole red blood cells, using parasite LDH activity as an index of growth. Test compounds present at 2uM; assay type: functional
Inhibition strictly less than 9% = TRUE. Otherwise FALSE.

Look over these answered cases.
CCC1CN2CCc3c([nH]c4ccc(OC)cc34)C2CC1CC1NCCc2cc(OC)c(OC)cc21.Cl (centres undefined) | FALSE
CC(C)(C)c1ccc(CNC(=O)c2cc(CNC3CCC(N)CC3)ccc2O)cc1 (centres undefined) | TRUE

In the following, a different compound is considered.
Q: Bench note: check whether CCNc1cc(C(=O)N[C@@H](Cc2ccccc2)[C@H](O)CNC(C)Cc2cccc(Cl)c2)cc(N2CCCCS2(=O)=O)c1.Cl (some centres undefined) shows Inhibition below 9%
Ans: FALSE
